- TARGET_OF_ASSAY: GluR2/GAPDH complex (Homo sapiens, UniProt P42262)
- Sequence (P42262 25-883, species assumed, one chain of several): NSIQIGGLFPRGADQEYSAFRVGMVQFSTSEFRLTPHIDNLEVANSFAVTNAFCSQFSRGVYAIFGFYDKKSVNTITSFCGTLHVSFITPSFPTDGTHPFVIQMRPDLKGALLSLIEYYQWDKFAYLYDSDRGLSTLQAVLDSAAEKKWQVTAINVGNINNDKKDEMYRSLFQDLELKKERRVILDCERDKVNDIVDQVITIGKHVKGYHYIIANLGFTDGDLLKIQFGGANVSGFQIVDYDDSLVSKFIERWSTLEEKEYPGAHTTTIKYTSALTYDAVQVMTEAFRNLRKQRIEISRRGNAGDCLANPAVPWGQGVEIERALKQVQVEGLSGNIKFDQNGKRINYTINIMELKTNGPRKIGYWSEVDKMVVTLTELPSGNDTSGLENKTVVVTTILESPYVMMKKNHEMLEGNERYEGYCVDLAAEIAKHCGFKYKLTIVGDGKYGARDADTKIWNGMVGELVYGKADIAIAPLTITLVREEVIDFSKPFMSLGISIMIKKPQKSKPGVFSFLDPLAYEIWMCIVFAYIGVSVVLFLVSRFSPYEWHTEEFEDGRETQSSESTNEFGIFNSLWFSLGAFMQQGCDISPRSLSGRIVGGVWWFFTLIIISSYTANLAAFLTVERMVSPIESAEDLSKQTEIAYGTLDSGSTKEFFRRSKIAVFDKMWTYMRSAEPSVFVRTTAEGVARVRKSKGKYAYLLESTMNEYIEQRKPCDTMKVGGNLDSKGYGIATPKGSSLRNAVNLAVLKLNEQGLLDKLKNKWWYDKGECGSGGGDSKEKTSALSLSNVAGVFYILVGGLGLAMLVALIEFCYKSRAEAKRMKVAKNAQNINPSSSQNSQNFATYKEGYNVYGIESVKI
- ASSAY_PROTOCOL: Surface plasmon resonance target engagement assay (competitive GluR2-Venus affinity with GAPDH)
- MEASUREMENT_PARAMETERS: SPR, captured GluR2-VENUS, 100 nM GAPDH peptide, compound top concentration 10 μM; read-out: Potency, GluR2 Binding Affinity (competitive inhibition of GluR2-GAPDH interaction)
pIC50: −log10 of the molar value.
PROPERTY_NAME: pIC50

Known results for molecules:
>  <MOLECULE>
O=C(c1cccc(N2Cc3cn(Cc4ccc(F)cc4)nc3C2)c1)N1CCCC1 [Compound 243]

>  <pIC50>
6.89

$$$$
>  <MOLECULE>
O=C(NC1CCCC1)c1ccnc(N2Cc3cn(Cc4ccc(F)cc4)nc3C2)n1 [Compound 213]

>  <pIC50>
7.70

$$$$
>  <MOLECULE>
CN(C)C(=O)c1cccc(N2Cc3cn(CC4CC4)nc3C2)c1 [Compound 247]

>  <pIC50>
6.83

$$$$
>  <MOLECULE>
CN(C)C(=O)c1cccc(N2Cc3cn(Cc4ccc(F)cc4)nc3C2)c1 [Compound 217]

>  <pIC50>
7.17

$$$$
>  <MOLECULE>
CN(C)C(=O)c1cccc(N2Cc3cn(CC4CCCCC4)nc3C2)c1 [Compound 239]

>  <pIC50>
7.39

$$$$

(A) CN(C)C(=O)c1ccnc(N2Cc3cn(Cc4ccc(F)cc4)nc3C2)n1 [Compound 210]
(B) O=C(c1ccnc(N2Cc3cn(Cc4ccc(F)cc4)nc3C2)n1)N1CCCCC1 [Compound 244]
(C) COc1ccc(Cn2cc3c(n2)CN(c2cncc(C(=O)N(C)C)n2)C3)cc1 [Compound 232]
Rank ascending by pIC50. Write the labels in rank order as requested.
C, A, B

(A) CN(C)C(=O)c1cncc(N2Cc3cn(Cc4ccc(F)cc4)nc3C2)n1 [Compound 155]
(B) CN1CCN(C(=O)c2cccc(N3Cc4cn(Cc5ccc(F)cc5)nc4C3)c2)CC1 [Compound 218]
Lower pIC50: A or B ? Your answer should be the label attached to the chosen record.
B
(B: 7.00, A: 9.40)
